# Target Desc: human renin (Homo sapiens)
# Construct: angiotensin-I released from human renin substrate by human resin in human plasma; from tissue; host or cells: human plasma (containing EDTA)
# Assay Text: human renin-renin substrate reaction in vitro; radioimmunoassay of angiotensin-I released in human plasma
# Format: biochemical
# Condition Label: Table 5; human renin-renin substrate reaction in vitro; read-out: IC50
pIC50: −log10 of the molar value. Where no end group is shown, it is not given here.
Measured Parameter: pIC50

• HPFHLVIH [corresponding nonisosteric peptide, reference compound] = 3.40

====

# Target Desc: human renin (Homo sapiens, UniProt P00797)
# Construct: angiotensin-I released from human renin substrate by human resin in human plasma; from tissue; host or cells: human plasma (containing EDTA)
# Sequence (P00797 67-406): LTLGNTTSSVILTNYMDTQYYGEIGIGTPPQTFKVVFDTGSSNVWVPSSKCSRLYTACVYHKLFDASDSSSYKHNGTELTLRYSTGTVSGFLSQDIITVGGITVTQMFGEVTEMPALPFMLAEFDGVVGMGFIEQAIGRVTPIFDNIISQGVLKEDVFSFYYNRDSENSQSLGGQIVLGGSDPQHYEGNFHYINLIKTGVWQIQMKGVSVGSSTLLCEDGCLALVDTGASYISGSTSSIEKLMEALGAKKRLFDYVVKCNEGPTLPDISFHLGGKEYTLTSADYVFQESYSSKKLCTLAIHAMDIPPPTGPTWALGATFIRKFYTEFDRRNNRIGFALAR
# Assay Text: human renin-renin substrate reaction in vitro; radioimmunoassay of angiotensin-I released in human plasma
# Type: biochemical
# Condition Label: Table 2; read-out: IC50 μM v/s human renin
*1 amine or outer side, *2 acyl side, *3 side chain or, on linkers, in order; H or OH if unused. Where a SMILES comes first, the peptide text is derived from it. [ ]: non-standard residue; d: D form. The star is where a group is joined. X1 = CC(C)C[C@H](N[*:1])[C@@H](O)C[C@H](C(=O)[*:2])C(C)C; X4 = CC(C)C[C@H](N[*:1])[C@@H](O)CCC(=O)[*:2]; Boc = CC(C)(C)OC(=O)*
Below: a set of entries, each annotated with reported IC50.
Measured Parameter: IC50

- CC[C@H](C)[C@H](NC(=O)[C@@H](C[C@H](O)[C@H](CC(C)C)NC(=O)[C@H](Cc1c[nH]cn1)NC(=O)[C@H](Cc1ccccc1)NC(=O)OC(C)(C)C)C(C)C)C(=O)N[C@@H](Cc1ccccc1)C(=O)OC [XLIX] (Boc-FH[X1]IF-OMe): 0.018 µM
- CC[C@H](C)[C@H](NC(=O)[C@@H](C[C@H](O)[C@@H](N)CC(C)C)C(C)C)C(=O)N[C@@H](Cc1c[nH]cn1)C(=O)N[C@@H](CCCCN)C(=O)O: 11 µM
- CC[C@H](C)[C@H](NC(=O)CC[C@H](O)[C@H](CC(C)C)NC(=O)[C@H](Cc1c[nH]cn1)NC(=O)[C@H](Cc1ccccc1)NC(=O)OC(C)(C)C)C(=O)N[C@@H](Cc1c[nH]cn1)C(=O)O [Example XLVIII] (Boc-FH[X4]IH-OH): 0.3 µM
- CC[C@H](C)[C@H](NC(=O)[C@@H](C[C@H](O)[C@H](CC(C)C)NC(=O)[C@H](Cc1c[nH]cn1)NC(=O)[C@H](Cc1ccccc1)NC(=O)OC(C)(C)C)C(C)C)C(=O)N[C@@H](Cc1c[nH]cn1)C(=O)O [Example XLVI] (Boc-FH[X1]IH-OH): 0.007 µM

Source listed as patent US4713445A.
